tested on: HCT-116 colon; test: NCI tumour cell line growth inhibition, 48 h
Where a SMILES comes first, the peptide text is derived from it. [ ]: non-standard residue; d: D form. The star is where a group is joined. ξ: configuration not given here. ξPhe(4-NO2) = NC(Cc1ccc([N+](=O)[O-])cc1)C(=O)O; Boc = CC(C)(C)OC(=O)*
Quantity Name: TGI

[[record]]
compound = "COc1cccc(NC(=O)c2ccc(NC3=C(Cl)C(=O)N(Cc4ccccc4)C3=O)cc2)c1"
observed_result = "28.3 µM"

[[record]]
compound = "COc1cc2ccc3c4cc(OC)c(OC(C)C)cc4c[n+](C)c3c2cc1OC"
observed_result = "> 100 µM"

[[record]]
compound = "CCNC(=O)CNC(=O)C(Cc1ccc([N+](=O)[O-])cc1)NC(=O)OC(C)(C)C (stereo not given) (Boc-[ξPhe(4-NO2)]-Gly-NHEt)"
observed_result = "> 100 µM"

[[record]]
compound = "CCCCCCC(=O)c1ccc2ccccc2c1O"
observed_result = "> 100 µM"

[[record]]
compound = "CCOc1cc(/C=C2\\N=C(c3ccccc3)N(c3nc4ccccc4s3)C2=O)ccc1O"
observed_result = "> 100 µM"

[[record]]
compound = "CC1=CC(=O)/C(=C/N2C(=O)CNC2=S)C(=O)O1"
observed_result = "> 100 µM"

[[record]]
compound = "COC(=O)C1SC[C@H]2C(=O)N(c3ccccc3)C(=O)N12 (stereo not given in full)"
observed_result = "> 100 µM"

[[record]]
compound = "O=C1NC(N2CCCCC2)=N/C1=C\\c1ccccc1"
observed_result = "> 100 µM"

[[record]]
compound = "COCC(=O)NC/C=C/c1ccc2ncnc(Nc3ccc(Oc4ccc(C)nc4)c(C)c3)c2c1"
observed_result = "30.9 µM"

[[record]]
compound = "COc1ccc(C(=O)c2cc(C)c(OC)c(C)c2)c(OC)c1N(C(=O)CCl)C(=O)CCl"
observed_result = "10.8 µM"


----------
tested on: MOLT-4 leukemia; experiment: NCI tumour cell line growth inhibition, 48 h
Quantity Name: GI50

[[record]]
smiles_text = "C=C1C(=O)O[C@H]2[C@H]1CC/C(Cn1cc(-c3ccsc3)nn1)=C\\CC[C@@]1(C)O[C@@H]21"
quantity_name = "GI50"
observed_result = "2590 nM"

[[record]]
smiles_text = "O=S(=O)(NCCNc1cc(-c2cn(-c3ccccc3)nc2-c2cccc(O)c2)ccn1)c1ccc(Br)cc1"
quantity_name = "GI50"
observed_result = "2210 nM"

[[record]]
smiles_text = "COc1ccc(-c2cc(-c3ccc(Cl)cc3)nc(SCCCCCCC(=O)NO)n2)cc1"
quantity_name = "GI50"
observed_result = "790 nM"

[[record]]
smiles_text = "CN1CCN(Cc2ccc(NC(=O)c3cccc(C#Cc4c(N)ncc5ccc(F)cc45)c3)cc2C(F)(F)F)CC1"
quantity_name = "GI50"
observed_result = "681 nM"

[[record]]
smiles_text = "CCCCCC(=C/c1ccccc1)/C=N/N=C(N)N"
quantity_name = "GI50"
observed_result = "1530 nM"


----------
Here, each record is paired with measured TGI data.
tested on: SNB-78 CNS; experiment: NCI tumour cell line growth inhibition, 48 h
Quantity Name: TGI

[[record]]
compound = "CC(=O)Oc1cc(Cl)c(OC(C)=O)c2c(OC(C)=O)c(C)c(O[Si](C)(C)C(C)(C)C)cc12"
quantity_name = "TGI"
observed_result = "9.82 µM"

[[record]]
compound = "CCCCC(N)CSSCC(N)CCCC (stereo not given)"
quantity_name = "TGI"
observed_result = "98.5 µM"

[[record]]
compound = "COc1c(Cl)[c]([Hg][O]C(C)=O)c(NCC(C)=O)c(OC)[c]1[Hg][O]C(C)=O"
quantity_name = "TGI"
observed_result = "43.2 µM"

[[record]]
compound = "CCCCCN(CCCCC)C(=O)[C@H](CCC(=O)OCc1ccccc1)NC(=O)c1cc2ccccc2[nH]1"
quantity_name = "TGI"
observed_result = "> 100 µM"

[[record]]
compound = "CC(CCC(=O)O)c1ccc(Br)cc1 (stereo not given)"
quantity_name = "TGI"
observed_result = "> 100 µM"

[[record]]
compound = "COc1ccc2c(c1OC)C(C=C(c1ccccc1)c1ccccc1)CN(C)C2 (stereo not given)"
quantity_name = "TGI"
observed_result = "> 100 µM"

[[record]]
compound = "CC(=O)OCc1nnn2c1CCC2"
quantity_name = "TGI"
observed_result = "> 100 µM"

[[record]]
compound = "C/C(=N\\NS(=O)(=O)c1c(C)cc(C)cc1C)c1ccc[n+]([O-])n1"
quantity_name = "TGI"
observed_result = "68.3 µM"

[[record]]
compound = "COc1ccc(NS(=O)(=O)c2ccc(N=C3C=C(Nc4ccc(S(=O)(=O)Nc5ccc(OC)nn5)cc4)C(=O)c4ccccc43)cc2)nn1"
quantity_name = "TGI"
observed_result = "> 100 µM"

[[record]]
compound = "Fc1ccc2c(c1)cc1ccc3cccc4ccc2c1c34"
quantity_name = "TGI"
observed_result = "> 100 µM"


----------
tested on: HOP-62 NSCLC; assay: NCI tumour cell line growth inhibition, 48 h
Quantity Name: TGI

[[record]]
compound = "ClCCc1ccccc1CC1=NCCc2ccccc21"
observed_result = "> 100 µM"

[[record]]
compound = "NC(N)=NC(N)=Nc1ccc(S(N)(=O)=O)cc1"
observed_result = "> 100 µM"

[[record]]
compound = "CC(C)(C)OC(=O)N1CCC(NC(=O)NC2CCN(C(=O)OC(C)(C)C)CC2)CC1"
observed_result = "> 100 µM"

[[record]]
compound = "CC1=CC2=C(C#N)C(=O)OC2(C)C(c2ccccc2)C1 (stereo not given)"
observed_result = "> 100 µM"

[[record]]
compound = "Cc1ccc2c(c1)-c1oc(=O)c(-c3cc4ccccc4oc3=O)cc1C(O)O2 (stereo not given)"
observed_result = "41.4 µM"

[[record]]
compound = "N.N.NCCCCCN.O=C([O-])CC(=O)[O-].O=C([O-])CC(=O)[O-].[Pt+4].[Pt+4]"
observed_result = "> 100 µM"

[[record]]
compound = "CCC(C)(C)NS(=O)(=O)c1ccccc1"
observed_result = "> 100 µM"

[[record]]
compound = "CN(C)C1C(=O)C(C(N)=O)=C(O)C2(O)C(=O)C3=C(O)c4c(O)cccc4C(C)(O)C3CC12 (stereo not given)"
observed_result = "> 100 µM"

[[record]]
compound = "O=C(COC(=O)c1cccc2c(=O)c3ccccc3[nH]c12)Nc1ccc(S(=O)(=O)Nc2ncccn2)cc1"
observed_result = "> 100 µM"

[[record]]
compound = "COc1ccc(C(=O)c2cc(C)c(OC)c(C)c2)c(OC)c1N(C(=O)CCl)C(=O)CCl"
observed_result = "25 µM"

[[record]]
compound = "CN1CCN(c2ccc(-c3cccc(CN4CCOCC4)c3)cc2NC(=O)c2c[nH]c(=O)cc2C(F)(F)F)CC1"
observed_result = "> 100 µM"

[[record]]
compound = "COC(=O)C1=C(O)c2cc3c(cc2[C@H](c2cc(OC)c(OC)c(OC)c2)C1)OCO3"
observed_result = "> 100 µM"

[[record]]
compound = "OC1(C2(c3ccc(Cl)cc3)CCCC2)c2ccccc2C2=NCCN21 (stereo not given)"
observed_result = "32.6 µM"

[[record]]
compound = "CNC(=O)OCC1=C(COC(=O)NC)C(C)N(c2ccccc2)C1 (stereo not given)"
observed_result = "> 100 µM"

[[record]]
compound = "C[C@@]1(O)CCC[C@H]1n1c(=O)c(C(F)F)cc2cnc(NC3CCN(S(C)(=O)=O)CC3)nc21"
observed_result = "> 100 µM"

[[record]]
compound = "C/C=C(\\C)C(=O)N1c2ccccc2CC1c1c(C)[nH]c2ccccc12 (stereo not given)"
observed_result = "> 100 µM"

[[record]]
compound = "CC1=CC(=O)/C(=C/N2C(=O)CNC2=S)C(=O)O1"
observed_result = "> 100 µM"

[[record]]
compound = "CN1CCN(Cc2ccc(NC(=O)c3cccc(C#Cc4c(N)ncc5ccc(F)cc45)c3)cc2C(F)(F)F)CC1"
observed_result = "1.65 µM"

[[record]]
compound = "Cc1c(C#N)c(N)n(C2OC(CO)C(O)C(O)C2O)c(=S)c1C#N (stereo not given)"
observed_result = "> 100 µM"

[[record]]
compound = "NS(=O)(=O)c1ccc(N2C(=O)C(=O)N(c3ccccc3)C2=S)cc1"
observed_result = "> 100 µM"


----------
Here, each record is paired with measured TGI data.
test system: DU-145 prostate; assay: NCI tumour cell line growth inhibition, 48 h
Quantity Name: TGI

[[record]]
compound = "Cc1ccc(NC(=S)N=Nc2c(O)[nH]c3ccccc23)cc1"
observed_result = "> 100 µM"

[[record]]
compound = "CCNC1=C(NC(=O)CCl)C(=O)c2ccccc2C1=O"
observed_result = "> 10 µM"

[[record]]
compound = "COc1ccc2c(c1)OC1c3ccccc3OCC21 (stereo unspecified)"
observed_result = "> 100 µM"

[[record]]
compound = "CCCCCCCCCCCCC(NC(C)=O)(C(=O)OCC)C(=O)OCC"
observed_result = "28.6 µM"

[[record]]
compound = "Cc1ccccc1C[P+](c1ccccc1)(c1ccccc1)c1ccccc1"
observed_result = "> 100 µM"

[[record]]
compound = "O=c1oc2ccccc2n1CCCn1c(=O)oc2ccccc21"
observed_result = "> 100 µM"


Values were extracted from PubChem BioAssay (NCI).
